# Test system: A431
# assay notes: filipin (cholesterol) integrated intensity within LBPA endosomes, Z-score; higher = more cholesterol in LBPA endosomes
# condition: compound concentration in added solution (µM; 5 µl added to 20 µl cells): 10; 18 h
Counter-ions that a name gives are not always drawn.
Listing of recorded filipin (z-score) by entry.

>  <molecule>
CN1CCC(OC(c2ccccc2)c2ccccc2)CC1 [Diphenylpyraline hydrochloride]

>  <study system>
A431

>  <filipin (z-score)>
0.505

$$$$
>  <molecule>
COCCOC(=O)C1=C(C)NC(C)=C(C(=O)OC/C=C/c2ccccc2)C1c1cccc([N+](=O)[O-])c1 (stereo not given) [Cilnidipine]

>  <study system>
A431

>  <filipin (z-score)>
0.591

$$$$
>  <molecule>
CNC(=C[N+](=O)[O-])NCCSCc1ccc(CN(C)C)o1 [Ranitidine hydrochloride]

>  <study system>
A431

>  <filipin (z-score)>
-0.524

$$$$
>  <molecule>
COc1cc(-c2ccc(=O)[nH]n2)ccc1OC(F)F [Zardaverine]

>  <study system>
A431

>  <filipin (z-score)>
-0.298

$$$$
>  <molecule>
CCOC(=O)NNc1nncc2ccccc12 [Todralazine hydrochloride]

>  <study system>
A431

>  <filipin (z-score)>
-0.572

$$$$

* * *

Listing of recorded filipin (z-score) by entry.
# Test system: A431
# assay notes: filipin (cholesterol) integrated intensity within LBPA endosomes, Z-score; higher = more cholesterol in LBPA endosomes
# condition: compound concentration in added solution (µM; 5 µl added to 20 µl cells): 10; 18 h

>  <compound>
Nc1cc(N2CCCCC2)nc(N)[n+]1[O-] [Minoxidil]

>  <study system>
A431

>  <filipin (z-score)>
-0.426

$$$$
>  <compound>
CC(=O)Oc1cc(C(C)C)c(OCCN(C)C)cc1C [Moxisylyte hydrochoride]

>  <study system>
A431

>  <filipin (z-score)>
-0.482

$$$$
>  <compound>
CC(=O)OCC(=O)[C@@]1(O)CC[C@H]2[C@@H]3CCC4=CC(=O)CC[C@]4(C)[C@H]3[C@@H](O)C[C@@]21C [Cortisol acetate]

>  <study system>
A431

>  <filipin (z-score)>
-0.306

$$$$
>  <compound>
CC(=O)S[C@@H]1CC2=CC(=O)CC[C@]2(C)[C@H]2CC[C@@]3(C)[C@@H](CC[C@@]34CCC(=O)O4)[C@H]12 [Spironolactone]

>  <study system>
A431

>  <filipin (z-score)>
-0.526

$$$$

* * *

# Test system: A431
# assay notes: LBPA endosome anti-LBPA integrated intensity (sum per cell), Z-score; higher = more LBPA staining
# condition: compound concentration in added solution (µM; 5 µl added to 20 µl cells): 10; 18 h
Where a name gives a salt, the structure may show the parent alone.
Assign class by LBPA endosome anti-LBPA integrated intensity (z-score): not lower than 0.04 means 1; lower than 0.04 means 0.

>  <compound>
C[C@H](CCC(=O)O)[C@H]1CC[C@H]2[C@@H]3CC[C@@H]4C[C@H](O)CC[C@]4(C)[C@H]3CC[C@]12C

>  <category>
0

$$$$
>  <compound>
O=C(O)Cc1ccccc1Nc1c(Cl)cccc1Cl [Diclofenac sodium]

>  <category>
0

$$$$
>  <compound>
CN1CCCC(n2nc(Cc3ccc(Cl)cc3)c3ccccc3c2=O)CC1 (stereo unspecified) [Azelastine HCl]

>  <category>
1

$$$$
>  <compound>
CN1CCN(C2=Nc3ccccc3Oc3ccc(Cl)cc32)CC1 [Loxapine succinate]

>  <category>
1

$$$$
>  <compound>
CC(=O)Oc1ccccc1C(=O)O

>  <category>
0

$$$$
>  <compound>
CNCCC=C1c2ccccc2C=Cc2ccccc21

>  <category>
1

$$$$
>  <compound>
O=C1OCCN1/N=C/c1ccc([N+](=O)[O-])o1

>  <category>
0

$$$$
>  <compound>
OC(c1cc(C(F)(F)F)nc2c(C(F)(F)F)cccc12)C1CCCCN1 (stereo unspecified) [Mefloquine hydrochloride]

>  <category>
1

$$$$
>  <compound>
Cc1ncc(C[n+]2csc(CCO)c2C)c(N)n1 [Thiamine hydrochloride]

>  <category>
0

$$$$
>  <compound>
C=C1/C(=C\C=C2/CCC[C@]3(C)[C@@H]([C@H](C)CCCC(C)C)CC[C@@H]23)C[C@@H](O)C[C@@H]1O

>  <category>
1

$$$$
>  <compound>
COc1ccc(C(=O)NCc2ccc(OCCN(C)C)cc2)cc1OC [Itopride]

>  <category>
0

$$$$
